Target: T1, GST-Swi6 (Schizosaccharomyces pombe, UniProt P40381 1-328)
T1 sequence: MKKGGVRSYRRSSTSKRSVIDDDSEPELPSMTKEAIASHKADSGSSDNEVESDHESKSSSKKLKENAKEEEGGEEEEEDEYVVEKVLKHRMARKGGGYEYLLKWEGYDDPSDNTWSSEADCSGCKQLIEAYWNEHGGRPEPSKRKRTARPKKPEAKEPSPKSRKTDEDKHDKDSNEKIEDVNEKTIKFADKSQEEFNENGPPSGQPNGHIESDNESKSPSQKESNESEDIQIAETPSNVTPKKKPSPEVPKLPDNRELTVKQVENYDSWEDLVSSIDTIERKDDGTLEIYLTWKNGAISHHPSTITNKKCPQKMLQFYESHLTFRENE
Experiment: EMSA
endpoint.name: pKd
Lab note: report pKd as minus log10 of the concentration in molar units, number only.

Entry ACAAGUGAUAAGAGUAGGUGU (ssRNA) [E-For RNA] , pKd reported as 5.67
